Assign AvZ (average z score of seeding, SDs from the mean level of seeding) to each entry below.
Target System: tau (Homo sapiens, UniProt P10636)
Sequence (P10636 623-695 limits assumed): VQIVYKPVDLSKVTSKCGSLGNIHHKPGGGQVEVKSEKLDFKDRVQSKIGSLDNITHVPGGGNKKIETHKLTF
Protocol Details: MCE Phenols Library screening, tau biosensor cell seeding assay (AvZ)
Format: cell-based
Recorded Conditions: 10 μM phenol in cell cultures, AD brain homogenate preincubated 16 hours, two biological replicates; positive = catalyzes seeding, negative = inhibits
I only need the number, thanks.

query: Given the entry CC(C)=CCC[C@]1(C)C=Cc2c(O)c3c(c(CC=C(C)C)c2O1)O[C@]12C(=C[C@@H]4C[C@H]1C(C)(C)O[C@@]2(C/C=C(/C)C(=O)O)C4=O)C3=O , what AvZ (average z score of seeding, SDs from the mean level of seeding) was observed with tau (Homo sapiens, UniProt P10636)?
result: -1.57

query: Given the entry COc1cc(CC(=O)O)ccc1O , what AvZ (average z score of seeding, SDs from the mean level of seeding) was observed with tau (Homo sapiens, UniProt P10636)?
result: -0.054

query: Given the entry NCCc1ccc(O)cc1 , what AvZ (average z score of seeding, SDs from the mean level of seeding) was observed with tau (Homo sapiens, UniProt P10636)?
result: 0.07

query: Given the entry O=Cc1cccc(O)c1 [3-Hydroxybenzaldehyde] , what AvZ (average z score of seeding, SDs from the mean level of seeding) was observed with tau (Homo sapiens, UniProt P10636)?
result: -0.137

query: Given the entry COc1cc(/C=C/CO)ccc1O , what AvZ (average z score of seeding, SDs from the mean level of seeding) was observed with tau (Homo sapiens, UniProt P10636)?
result: 0.529

query: Given the entry O=C(O)Cc1ccccc1O [2-Hydroxyphenylacetic acid] , what AvZ (average z score of seeding, SDs from the mean level of seeding) was observed with tau (Homo sapiens, UniProt P10636)?
result: -0.831

query: Given the entry COC(=O)c1cc(O)c(O)c(O)c1 [Methyl gallate] , what AvZ (average z score of seeding, SDs from the mean level of seeding) was observed with tau (Homo sapiens, UniProt P10636)?
result: -1.311

query: Given the entry NCC(c1ccc(O)cc1)C1(O)CCCCC1 (stereo not shown) , what AvZ (average z score of seeding, SDs from the mean level of seeding) was observed with tau (Homo sapiens, UniProt P10636)?
result: 0.955

query: Given the entry COc1cc(/C=C/C(=O)O)cc(O)c1O [5-Hydroxyferulic acid] , what AvZ (average z score of seeding, SDs from the mean level of seeding) was observed with tau (Homo sapiens, UniProt P10636)?
result: -0.968

query: Given the entry CC(=O)c1cc(O)ccc1O [2,5-Dihydroxyacetophenone] , what AvZ (average z score of seeding, SDs from the mean level of seeding) was observed with tau (Homo sapiens, UniProt P10636)?
result: -0.464

query: Given the entry Oc1c(Br)cccc1Br , what AvZ (average z score of seeding, SDs from the mean level of seeding) was observed with tau (Homo sapiens, UniProt P10636)?
result: -0.18

query: Given the entry COc1ccc(C(C)=O)c(O)c1 , what AvZ (average z score of seeding, SDs from the mean level of seeding) was observed with tau (Homo sapiens, UniProt P10636)?
result: 0.272

query: Given the entry O=C(O)CCc1ccc(O)c(O)c1 [Dihydrocaffeic acid] , what AvZ (average z score of seeding, SDs from the mean level of seeding) was observed with tau (Homo sapiens, UniProt P10636)?
result: -0.454

query: Given the entry OCCc1ccc(O)c(O)c1 [Hydroxytyrosol] , what AvZ (average z score of seeding, SDs from the mean level of seeding) was observed with tau (Homo sapiens, UniProt P10636)?
result: -0.34

query: Given the entry OCCc1ccc(O)cc1 , what AvZ (average z score of seeding, SDs from the mean level of seeding) was observed with tau (Homo sapiens, UniProt P10636)?
result: 0.05

query: Given the entry COc1cc(C)ccc1O , what AvZ (average z score of seeding, SDs from the mean level of seeding) was observed with tau (Homo sapiens, UniProt P10636)?
result: 0.768

query: Given the entry O=C(O)Cc1cc(O)ccc1O , what AvZ (average z score of seeding, SDs from the mean level of seeding) was observed with tau (Homo sapiens, UniProt P10636)?
result: -1.185

query: Given the entry CC(=O)c1ccc(C)cc1O [2'-Hydroxy-4'-methylacetophenone] , what AvZ (average z score of seeding, SDs from the mean level of seeding) was observed with tau (Homo sapiens, UniProt P10636)?
result: -0.002

query: Given the entry O=Cc1c[nH]c2cccc(O)c12 [4-Hydroxy-1H-indole-3-carbaldehyde] , what AvZ (average z score of seeding, SDs from the mean level of seeding) was observed with tau (Homo sapiens, UniProt P10636)?
result: 0.212

query: Given the entry O=c1c(O)c(-c2ccc(O)cc2)oc2c(O)c(O)cc(O)c12 , what AvZ (average z score of seeding, SDs from the mean level of seeding) was observed with tau (Homo sapiens, UniProt P10636)?
result: -1.63

query: Given the entry O=C(O)Cc1cccc(O)c1 [3-Hydroxyphenylacetic acid] , what AvZ (average z score of seeding, SDs from the mean level of seeding) was observed with tau (Homo sapiens, UniProt P10636)?
result: -0.027

query: Given the entry CC(=O)N[C@@H](Cc1ccc(O)cc1)C(=O)O , what AvZ (average z score of seeding, SDs from the mean level of seeding) was observed with tau (Homo sapiens, UniProt P10636)?
result: -0.474

query: Given the entry COc1cc(CCN)ccc1O , what AvZ (average z score of seeding, SDs from the mean level of seeding) was observed with tau (Homo sapiens, UniProt P10636)?
result: -0.304

query: Given the entry CCOC(=O)c1cc(O)c(O)c(O)c1 [Ethyl gallate] , what AvZ (average z score of seeding, SDs from the mean level of seeding) was observed with tau (Homo sapiens, UniProt P10636)?
result: -0.79

query: Given the entry O.O=C(O)c1cc(O)c(O)c(O)c1 [Gallic acid (hydrate)] , what AvZ (average z score of seeding, SDs from the mean level of seeding) was observed with tau (Homo sapiens, UniProt P10636)?
result: -1.246

query: Given the entry COc1cc(C=O)cc(OC)c1O , what AvZ (average z score of seeding, SDs from the mean level of seeding) was observed with tau (Homo sapiens, UniProt P10636)?
result: -0.318

query: Given the entry CC(=O)NCCc1c[nH]c2ccc(O)cc12 [N-Acetyl-5-hydroxytryptamine] , what AvZ (average z score of seeding, SDs from the mean level of seeding) was observed with tau (Homo sapiens, UniProt P10636)?
result: -0.235

query: Given the entry Cc1ccc(C(C)C)cc1O , what AvZ (average z score of seeding, SDs from the mean level of seeding) was observed with tau (Homo sapiens, UniProt P10636)?
result: 0.979

query: Given the entry Cc1cc(O)cc(O)c1 , what AvZ (average z score of seeding, SDs from the mean level of seeding) was observed with tau (Homo sapiens, UniProt P10636)?
result: -0.839

query: Given the entry OCC(O)c1ccc(O)c(O)c1 (stereo not shown) [4-(1,2-Dihydroxyethyl)benzene-1,2-diol] , what AvZ (average z score of seeding, SDs from the mean level of seeding) was observed with tau (Homo sapiens, UniProt P10636)?
result: -0.242

query: Given the entry CCCCCCC/C=C/C(=O)CCc1ccc(O)c(OC)c1 [[8]-Shogaol] , what AvZ (average z score of seeding, SDs from the mean level of seeding) was observed with tau (Homo sapiens, UniProt P10636)?
result: -0.665

query: Given the entry COc1cc(/C=C/C=O)cc(OC)c1O , what AvZ (average z score of seeding, SDs from the mean level of seeding) was observed with tau (Homo sapiens, UniProt P10636)?
result: 0.096

query: Given the entry COc1cc(/C=C/C(=O)OCC[N+](C)(C)C)cc(OC)c1O.N#C[S-] [Sinapine (thiocyanate)] , what AvZ (average z score of seeding, SDs from the mean level of seeding) was observed with tau (Homo sapiens, UniProt P10636)?
result: 0.005

query: Given the entry O=C(O)C=Cc1ccc(O)cc1 , what AvZ (average z score of seeding, SDs from the mean level of seeding) was observed with tau (Homo sapiens, UniProt P10636)?
result: -0.287

query: Given the entry NCc1ccc(O)cc1 [4-Hydroxybenzylamine] , what AvZ (average z score of seeding, SDs from the mean level of seeding) was observed with tau (Homo sapiens, UniProt P10636)?
result: -0.572

query: Given the entry C=CCc1ccc(O)c(OC)c1 , what AvZ (average z score of seeding, SDs from the mean level of seeding) was observed with tau (Homo sapiens, UniProt P10636)?
result: -0.624

query: Given the entry Oc1ccc(O)c(O)c1 [1,2,4-Trihydroxybenzene] , what AvZ (average z score of seeding, SDs from the mean level of seeding) was observed with tau (Homo sapiens, UniProt P10636)?
result: -1.385

query: Given the entry C/C=C/c1ccc(OC(C)=O)c(OC)c1 [Isoeugenol acetate] , what AvZ (average z score of seeding, SDs from the mean level of seeding) was observed with tau (Homo sapiens, UniProt P10636)?
result: -0.275

query: Given the entry CCCCCC/C=C\CCCCCCCCCc1cccc(O)c1C(=O)O , what AvZ (average z score of seeding, SDs from the mean level of seeding) was observed with tau (Homo sapiens, UniProt P10636)?
result: 0.292

query: Given the entry O=C(O)c1ccccc1O [Salicylic acid, reference compound] , what AvZ (average z score of seeding, SDs from the mean level of seeding) was observed with tau (Homo sapiens, UniProt P10636)?
result: -0.516

query: Given the entry NC(Cc1cccc(O)c1)C(=O)O (racemic) , what AvZ (average z score of seeding, SDs from the mean level of seeding) was observed with tau (Homo sapiens, UniProt P10636)?
result: 1.911

query: Given the entry CC(=O)CCc1ccc(O)cc1 , what AvZ (average z score of seeding, SDs from the mean level of seeding) was observed with tau (Homo sapiens, UniProt P10636)?
result: -0.371

query: Given the entry COc1cc(C(C)=O)ccc1O , what AvZ (average z score of seeding, SDs from the mean level of seeding) was observed with tau (Homo sapiens, UniProt P10636)?
result: -0.67
